Biological target: T1, human CD40 on cells (human, UniProt P25942 21-277)
T1 construct: also called CD40 receptor on human B cells
T1 sequence (P25942 21-277 limits assumed): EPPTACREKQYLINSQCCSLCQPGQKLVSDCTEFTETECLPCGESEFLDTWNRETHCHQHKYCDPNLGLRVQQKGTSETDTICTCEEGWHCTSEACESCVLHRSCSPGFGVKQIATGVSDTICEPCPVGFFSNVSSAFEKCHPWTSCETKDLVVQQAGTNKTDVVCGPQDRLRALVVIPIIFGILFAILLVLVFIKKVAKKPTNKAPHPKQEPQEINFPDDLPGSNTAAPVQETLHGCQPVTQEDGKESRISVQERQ
Assay: flow cytometry, labelled CD40L on CD40-293T cells, antibody at 2.5 ug/ml
Consider the following binders and their measured Ligand Binding Inhibition (%) readings.
A number alone suffices; assume %.

[[record]]
binder = "33H6 (antibody, IgG4, V domains shown, also called 4883-1) VH: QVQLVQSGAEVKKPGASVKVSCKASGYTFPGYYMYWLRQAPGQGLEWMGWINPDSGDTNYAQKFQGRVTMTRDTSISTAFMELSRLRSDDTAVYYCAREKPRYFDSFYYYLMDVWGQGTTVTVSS VL: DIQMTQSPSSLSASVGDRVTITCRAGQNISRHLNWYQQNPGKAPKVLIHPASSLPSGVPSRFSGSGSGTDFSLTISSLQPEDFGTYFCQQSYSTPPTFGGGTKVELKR"
result_value = -8


Consider the record given below.
Look up Ligand Binding Inhibition (%): 37A6 (antibody, IgG4, V domains shown, also called 4865-1) VH: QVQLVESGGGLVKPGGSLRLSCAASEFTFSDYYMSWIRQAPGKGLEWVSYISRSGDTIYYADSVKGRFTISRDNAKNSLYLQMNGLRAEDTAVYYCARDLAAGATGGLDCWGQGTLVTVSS VL: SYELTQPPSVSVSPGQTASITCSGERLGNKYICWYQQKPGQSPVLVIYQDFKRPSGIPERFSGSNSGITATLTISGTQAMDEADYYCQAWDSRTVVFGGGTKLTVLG -19

Every entry's value here was drawn from patent US20260109776A1.
